Field: pEC50. Provide a value for each of the compounds that follow.
Tested on: HCV genotype 1b
Test: HCV 1b replicon luciferase assay
Assay type: cell-based
Conditions: Hepatitis C virus, Huh-7, 48 h, Table 1; Huh7 HCV 1b replicon, luciferase reporter, 48 hours; read-out: 1b EC50
Answers are plain numbers, as −log10 of the molar value.

Reference set, count: 10
* Cn1nc(C(=O)NC2CCN(CCN3CCC(CO)CC3)CC2)c2ccc(N3CCCCCC3)nc21 | 6.07
* CCN(c1ccc2c(C(=O)NC3CCN(CC4CCCCC4)CC3)nn(C)c2n1)C1CCCCCC1 | 6.13
* C=CCCCCCn1nc(C(=O)NC2CCN(CC=C)CC2)c2ccc(N3CCCCCC3)nc21 | 5.09
* Cn1nc(COCC2CCNCC2)c2ccc(N3CCCCCC3)nc21 | 5.12
* COc1cncc(-c2ccccc2COc2ccc3c(C(=O)NC4CCNCC4)nn(C)c3n2)c1 | 5.82
* Cn1nc(-c2c[nH]c(C3CCNCC3)n2)c2ccc(N3CCCCCC3)nc21 | 5.19
* Cn1nc(-c2cnc(C3CCN(CC(F)F)C3)s2)c2ccc(N3CCCCCCC3)nc21 (centres unmarked) | 5.34
* CCC(CC)Oc1ccc2c(C(=O)NC3CCNCC3)nn(Cc3ccc(Cl)cc3)c2n1 | 5.49
* CCN(CC)c1ccc2c(C(=O)NC3CCNCC3)nn(C)c2n1 | 5.54
* Cn1nc(CCCN2CCCCC2)c2ccc(N3CCCCCCC3)nc21 | 5.82

Please give pEC50, item by item, for the list that follows.
1. Cn1nc(C(=O)NC2CCNCC2)c2ccc(OCc3ccccc3-c3cccnc3)nc21
2. Cn1nc(C(=O)Nc2ccncc2)c2ccc(N3CCCCCC3)nc21
3. Cn1nc(NC(=O)[C@H]2CC[C@@H](N)CC2)c2ccc(N3CCCCCC3)nc21
4. C[C@@H]1CCC[C@H]1Oc1ccc2c(C(=O)NC3CCNCC3)nn(C)c2n1

*A*
[5.66, 5.96, 5.18, 5.59]

* * *

Assay: Liver microsome stability, human
Format: in vitro ADME
Details: after 15 min
Would you kindly list human liver microsome (HLM, % parent remaining) for each of these molecules?
One number for each entry, in % parent remaining.

• Cn1nc(C(=O)NC2CCN(CCN3CCCCC3CO)CC2)c2ccc(N3CCCCCC3)nc21 (stereo not shown) [compound 1559] = 65

Consider the following items and state reported human liver microsome (HLM, % parent remaining) for each.
1. CC(C)N1CCC(NC(=O)c2nn(C)c3nc(N4CCCCCC4)ccc23)CC1 [EBP1604]
2. CCC(CC)Oc1ccc2c(C(=O)NC3CCNCC3)n[nH]c2n1 [compound 726]

*A*
[71, 86]

* * *

Assay: In vivo rat pharmacokinetic studies
Conditions: plasma, 40 mg/kg; rat, PO 40 mpk, 8 h; read-out: Plasma
reportedProperty: concentration at 8 h (ng/mL)
Answers are plain numbers, in ng/mL.

*Q* Specify reported concentration at 8 h for the compound shown: "Cn1nc(C(=O)NC2CCN(CCN3CCCC3)CC2)c2ccc(N3CCCCCC3)nc21"
*A* 2.6

* * *

Experiment: Caco-2 permeability testing
Format: in vitro ADME, human
Conditions: human, pH 7.4; Caco-2, Papp (B-A)/Papp (A-B); read-out: Efflux/Permeability ratio (desired <3)
reportedProperty: efflux ratio at 90 min, 10 µM
Numbers only.

Observe how each entry below is paired with its result.
• CC(C)N1CCC(NC(=O)c2nn(C)c3nc(N4CCCCCC4)ccc23)CC1 [EBP1604] = 0.8
• Cn1nc(C(=O)NC2CCN(CCN3CCCC3)CC2)c2ccc(N3CCCCCC3)nc21 [EBP1597] = 0.8

*Q* Item CCN1CCC(NC(=O)c2nn(C)c3nc(N4CCCCCC4)ccc23)CC1 [EBP1595] : provide efflux ratio at 90 min, 10 µM
*A* 0.9

* * *

Exercise: state measured concentration in liver, fold above the EC50 for each of the compounds provided.
Assay: In vivo rat pharmacokinetic studies
Conditions: rat liver after PO 20 or 40 mpk, for qd dosing

Recorded concentration in liver, fold above the EC50, per entry:
• Cn1nc(C(=O)NC2CCN(CCN3CCCCC3)CC2)c2ccc(N3CCCCCC3)nc21 = 2-60 fold
• Cn1nc(C(=O)NC2CCN(CCN3CCCC3)CC2)c2ccc(N3CCCCCC3)nc21 = 2-18 fold

Now for the compound whose concentration in liver, fold above the EC50 we want.
*Q* Return concentration in liver, fold above the EC50 for the following compound: "CCN1CCC(NC(=O)c2nn(C)c3nc(N4CCCCCC4)ccc23)CC1"
*A* 2-32 fold

* * *

System: HCV genotype 1b
Experiment: HCV 1b replicon luciferase assay
Type: cell-based
Conditions: Hepatitis C virus, Huh-7, 48 h, Table 1; Huh7 HCV 1b replicon, luciferase reporter, 48 hours; read-out: 1b EC50
Parameter class (string): assigned from measured EC50. Ranges: low = under 2000 nM, mid = from 2000 nM up to 3000 nM, high = 3000 nM and over

Observe how each entry below is paired with its result.
• Cn1nc(C(=O)NC2CCNCC2)c2ccc(NCc3ccccc3)nc21 = high
• Cn1nc(CNC2CCCNC2)c2ccc(N3CCCCCC3)nc21 (stereo not shown) = mid

*Q* Assign a category based on measured EC50 for Cn1nc(NC(=O)CC2CCCNC2)c2ccc(N3CCCCCC3)nc21 (stereo not shown) and give only the class name.
*A* high

*Q* # bin label for "O=C(NC1CCNCC1)c1nn(C(=O)C2CCCCC2)c2nc(N3CCCCCC3)ccc12.O=C(O)C(F)(F)F.O=C(O)C(F)(F)F.O=C(O)C(F)(F)F"
*A* mid

*Q* Which category fits this record: Cn1nc(-c2c[nH]c(C3CCCNC3)n2)c2ccc(N3CCCCCC3)nc21 (stereo not shown)
*A* high

*Q* Textbook exercise: identify the category of the molecule given here, Cn1nc(-c2cnc(C3CCCN(Cc4ccc(OC(F)F)cc4)C3)s2)c2ccc(N3CCCCCCC3)nc21 (stereo not shown) , according to its measured value.
*A* mid

*Q* Given "Cn1nc(C(=O)NC2CCN(CC3CCOCC3)CC2)c2ccc(NC3CCCCCCC3)nc21" , name the class its EC50 places it in.
*A* low

*Q* Which of the defined bands does the recorded EC50 of "C=CCCCn1nc(C(=O)NC2CCN(CC=C)CC2)c2ccc(N3CCCCCC3)nc21" sit within?
*A* mid

*Q* Quick check: band for "CC(C)c1ccc(CN2CCC(NC(=O)c3nn(C)c4nc(N5CCCCCC5)ccc34)CC2)cc1"
*A* low

*Q* Category of "COC[C@@H]1CCCN1CCN1CCC(NC(=O)c2nn(C)c3nc(N4CCCCCC4)ccc23)CC1" , please.
*A* mid

*Q* Which bin, given its EC50, does CCN1CCC(NC(=O)c2nn(C)c3nc(N4CCCCCCC4)ccc23)CC1C (stereo not shown) occupy?
*A* low

*Q* For the record "CCC(CC)n1nc(C(=O)NC2CCNCC2)c2ccc(N3CCCCCC3)nc21" , report the class its EC50 corresponds to.
*A* mid

*Q* The entry to classify is "CCC(CC)Oc1ccc2c(C(=O)NC3CCN(CC4CCCCC4)CC3)nn(C)c2n1" ; which class holds it?
*A* low

*Q* Any idea which band "Cn1nc(C(=O)NC2CCN(CC3CCCCC3)CC2)c2ccc(N3CCCCCCC3)cc21" is in?
*A* low

*Q* Sort "Cn1nc(C(=O)NC2CCN(CCO)CC2)c2ccc(N3CCCCCC3)nc21" into one of the categories.
*A* mid

* * *

Experiment: Caco-2 permeability testing
Type: in vitro ADME, human
Conditions: human, Caco-2, pH 7.4, Caco-2, B-A, 90 min; read-out: Efflux (first figure of Efflux/permeability), Papp (B-A)
Please use Criterion met for Papp B→A at 90 min, 10 µM under 9 ×10⁻⁶ cm/s and Criterion not met for everything else, ties included.

* Cn1nc(C(=O)NC2CCN(CC3CCCCC3)CC2)c2ccc(N3CCCCCCC3)cc21 | Criterion met
* CCCN1CCC(NC(=O)c2nn(C)c3nc(NC4CCCCCCC4)ccc23)CC1 | Criterion met
* Cn1nc(C(=O)NC2CCNCC2)c2ccc(N3CCCCCC3)nc21.O=C(O)C(F)(F)F.O=C(O)C(F)(F)F | Criterion not met

*Q* Lab log: compare recorded Papp B→A at 90 min, 10 µM with 9 ×10⁻⁶ cm/s; is it strictly lower for CC1CCC(C)N1CCN1CCC(NC(=O)c2nn(C)c3nc(N4CCCCCC4)ccc23)CC1 (stereo not shown) ?
*A* Criterion met

*Q* Check if Papp B→A at 90 min, 10 µM falls below 9 ×10⁻⁶ cm/s for "Cn1nc(C(=O)NC2CCN(CCN3CCC(CO)CC3)CC2)c2ccc(N3CCCCCC3)nc21" .
*A* Criterion not met

*Q* Dear reviewer, please state whether CCC(CC)Oc1ccc2c(COCC3CCCNC3)nn(Cc3ccc(Cl)cc3)c2n1.O=C(O)C(F)(F)F (stereo not shown) has Papp B→A at 90 min, 10 µM strictly beneath 9 ×10⁻⁶ cm/s.
*A* Criterion met
